Test system: 786-0
Assay Explanation: NCI tumour cell line growth inhibition, 48 h
Active and inactive are the calls of the source. Cut-off read from the data, not from the text of the source: active = GI50 up to about 1.1 µM and inactive = higher.
Please respond with reported GI50 for every item in the list.

Given the compound COc1ccc2c(c1)CC1c3c(cc4c(c3-2)OCO4)CCN1C (centres undefined) , what is its reported GI50?
27.6 µM (inactive)

Given the compound "c1ccc2c3c(ccc2c1)CSCc1ccc2ccccc2c1-3" , what is its reported GI50?
> 100 µM (inactive)

Given the compound C=C(C)C1CC[C@]2(C(=O)O)CCC3(C)[C@H](CCC4[C@@]5(C)CC[C@H](OC6OC(CO)C(O)C6OC6OC(C)C(O)C(O)C6O)[C@@](C)(CO)C5CC[C@]43C)C12 (some centres undefined) , what is its reported GI50?
> 100 µM (inactive)

Given the compound "C1CC2=C(C1)C1=S(S2)SC2=C1CCC2" , what is its reported GI50?
> 100 µM (inactive)

Given the compound CCC(C)C(NC(=O)C(CCCCN)NC(=O)C(NC(=O)C(CCC(N)=O)NC(=O)C(CCCNC(=N)N)NC(C)=O)C(C)CC)C(=O)NC(Cc1c[nH]c2ccccc12)C(=O)NC(Cc1ccccc1)C(=O)NC(CCC(N)=O)C(=O)NC(CC(N)=O)C(=O)NC(CCCNC(=N)N)C(=O)NC(CCCNC(=N)N)C(=O)NC(CCSC)C(=O)NC(CCCCN)C(=O)NC(Cc1c[nH]c2ccccc12)C(=O)NC(CCCCN)C(=O)NC(CCCCN)C(N)=O (centres undefined) , what is its reported GI50?
12 µM (inactive)

Given the compound "Cc1noc(C)c1CCCOC1COc2ccccc2OCCOCCOc2ccccc2OC1" , what is its reported GI50?
> 100 µM (inactive)

Given the compound COc1cc(COC(=O)NC(Cc2cccs2)C(=O)O)c([N+](=O)[O-])cc1OC (centres undefined) , what is its reported GI50?
> 100 µM (inactive)

Given the compound CCN(CC)c1ccc(C2Nc3ccc4ccccc4c3C3=C2C(=O)CCC3)cc1 (centres undefined) , what is its reported GI50?
19.4 µM (inactive)

Given the compound CCOP(=O)(OCC)C1C(CO)OC(n2ccc(=O)[nH]c2=O)C1O (centres undefined) , what is its reported GI50?
> 100 µM (inactive)

Given the compound "O=Cc1cccc2ccc3ccccc3c12" , what is its reported GI50?
17.5 µM (inactive)

Given the compound "CC1=CC(=O)/C(=C/NC(=S)NCCc2ccccc2)C(=O)O1" , what is its reported GI50?
31 µM (inactive)

Given the compound CCC1CCc2c(OC)ccc(OCC(=O)O)c2C1=O (centres undefined) , what is its reported GI50?
> 100 µM (inactive)

Given the compound "COc1ccc(C=O)cc1O[Si](C)(C)C(C)(C)C" , what is its reported GI50?
> 100 µM (inactive)

Given the compound CC/C(=C/OC)P1(=O)OC(C)(C)CN1C(C)(C)C (centres undefined) , what is its reported GI50?
> 100 µM (inactive)

Given the compound CC1=NN(c2cccc(S(=O)(=O)O)c2)C2(C1)C(Cl)C(=O)N2c1nc2ccccc2s1 (centres undefined) , what is its reported GI50?
5.56 µM (inactive)

Given the compound "O=C(c1ccco1)N(C(=S)OCCOc1ccccc1)c1ccccc1" , what is its reported GI50?
19.7 µM (inactive)

Given the compound Cc1cc(=O)oc2c(CNC(CC(C)C)C(=O)O)c(O)ccc12 (centres undefined) , what is its reported GI50?
> 100 µM (inactive)

Given the compound "Cc1ccc(-c2c(C#N)c(N)nc3c2CCS(=O)(=O)c2ccccc2-3)cc1" , what is its reported GI50?
44.2 µM (inactive)

Given the compound "OC1CSCCSCCCSCCSC1" , what is its reported GI50?
> 100 µM (inactive)

Given the compound CC(C)[Si](OC12CCC(CC1O)CC2C(=O)O)(C(C)C)C(C)C (centres undefined) , what is its reported GI50?
11 µM (inactive)

Given the compound "Cc1c(CCl)c(=O)oc2c(C)c3occ(CCl)c(=O)c3cc12" , what is its reported GI50?
> 100 µM (inactive)

Given the compound COc1cc(C2c3cc4c(cc3OC(NCCc3ccccc3)C2C)OCO4)cc(OC)c1OC (centres undefined) , what is its reported GI50?
0.465 µM (active)

Given the compound "Oc1nc(S)nc2c1CCCN2" , what is its reported GI50?
> 100 µM (inactive)

Given the compound COC(=O)NC1C(C)OC(OC2C/C=C(/C)C3C=CC4C(OC5CC(OC6CCC(OC7CC(O)C(OC8CCC(O)C(C)O8)C(C)O7)C(C)O6)C(OC(C)=O)C(C)O5)C(C)CC(C)C4C3(C)/C(O)=C3/C(=O)OC4(CC(C=O)=CC(O)C4/C=C\2C)C3=O)CC1(C)[N+](=O)[O-] (centres undefined) , what is its reported GI50?
0.861 µM (active)

----------
Please respond with reported GI50 for every item in the list.
Test system: BT-549
Assay Explanation: NCI tumour cell line growth inhibition, 48 h
The source made the active and inactive calls. Cut-off read from the data, not from the text of the source: active = GI50 up to about 1.1 µM and inactive = higher.

Given the compound CN(C(=O)c1ccccc1)C1CCCC(=O)CC1 (stereo not drawn) , what is its reported GI50?
> 100 µM (inactive)

Given the compound CCCCCCC1CC(=O)C1(Cl)Cl (stereo not drawn) , what is its reported GI50?
21.4 µM (inactive)

Given the compound "COc1ccc(NC(=S)C#N)cc1" , what is its reported GI50?
> 100 µM (inactive)

Given the compound "Brc1cccc[n+]1-c1ccc2cc(-[n+]3ccccc3Br)ccc2c1" , what is its reported GI50?
97.9 µM (inactive)

Given the compound "CC(C)OP(=O)(OC(C)C)c1ccc2c(c1)OCCOCCOCCOCCO2" , what is its reported GI50?
> 100 µM (inactive)

Given the compound CC/C(=C/OC)P1(=O)OC(C)(C)CN1C(C)(C)C (stereo not drawn) , what is its reported GI50?
> 100 µM (inactive)

Given the compound "NC1=CN(CCCO)C2=N/C(=C\c3ccco3)C(=O)N12" , what is its reported GI50?
> 100 µM (inactive)

Given the compound "O=C1C=C(Cl)C(=O)C(c2ccc(Cl)cc2)=C1" , what is its reported GI50?
23.8 µM (inactive)

----------
Test system: SN12C
Assay Explanation: NCI tumour cell line growth inhibition, 48 h
The source made the active and inactive calls. Rule as the data show it: active = GI50 up to about 1.1 µM and inactive = higher.
Please respond with reported GI50 for every item in the list.

Given the molecule "CC(=O)Oc1c(Br)ccc2cc(C(Br)Br)c(C(=O)c3ccccc3)nc12" , what is its reported GI50?
20 µM (inactive)

Given the molecule COc1cc(COC(=O)NC(Cc2cccs2)C(=O)O)c([N+](=O)[O-])cc1OC (centres undefined) , what is its reported GI50?
> 100 µM (inactive)

Given the molecule "CCOC(=O)Cc1csc(Nc2ccc(OCC)cc2)n1" , what is its reported GI50?
> 100 µM (inactive)

Given the molecule CCOC(=O)C1(Cc2ccc3ccccc3c2)CCCCC(=O)N1 (centres undefined) , what is its reported GI50?
44.5 µM (inactive)

----------
Test system: HL-60
Assay Explanation: NCI tumour cell line growth inhibition, 48 h
Active and inactive are the calls of the source. Cut-off read from the data, not from the text of the source: active = GI50 up to about 1.1 µM and inactive = higher.
Mark one answer only. Choices: Yes for active, No for inactive

Entry "CCOC(=O)c1c(C)n(Cc2ccc(Cl)cc2Cl)c2c1cc(O)c1[nH]c3c(c12)CCCC3" : call = ?
Yes

Entry COc1ccc(C(=O)N2c3ccccc3N(C)n3cccc3C2CC(=O)O)cc1 (centres undefined) : call = ?
No

Entry "Nc1nc(Cl)cc(NCC2(CO)COC2)n1" : call = ?
No

Entry "COc1ccc(C2=Nc3ccccc3NC(=O)C2)cc1" : call = ?
No

Entry O=C(O)CCC1CCc2cccc(OCC(=O)O)c2C1=O (centres undefined) : call = ?
No

Entry "Nn1c(Cc2ccccc2)n[nH]c1=O" : call = ?
No

Entry "COc1ccc(OCc2ccc3nc(-c4ccccc4)c(Cl)nc3c2)cc1" : call = ?
No

Entry "CN(C)CCN(C)c1ccc2c(=O)n(CCN(C)C)c(=O)n3c4ccccc4c(=O)c1c23" : call = ?
Yes

Entry "Cc1ccc(NC(=O)C(=O)C2C(=O)NC(=O)NC2=O)cc1C" : call = ?
No

----------
Tested on: NCI-H226
Assay Explanation: NCI tumour cell line growth inhibition, 48 h
The source made the active and inactive calls. Cut-off read from the data, not from the text of the source: active = GI50 up to about 1.1 µM and inactive = higher.
Quantity Measured: GI50

Given the compound "COc1ccc2cc(/C=N\NC(=O)Nc3cccc4ccccc34)ccc2c1" , what is its reported GI50?
28.2 µM (inactive)

Given the compound "COc1ccc(NC(S)=Nc2ccccc2)cc1" , what is its reported GI50?
> 100 µM (inactive)

Given the compound "CC(C)=CCOC(=O)C(C)=[N+]=[N-]" , what is its reported GI50?
> 100 µM (inactive)

Given the compound OC1C2[C@@H](O)CCCN2C[C@@H](O)[C@H]1O (some centres undefined) , what is its reported GI50?
> 100 µM (inactive)

Value source: ChEMBL document CHEMBL1201862
